assay: Cytotoxicity against human TZM-bl cells; type: toxicity, cell-based
Entries and their CC50 values follow.

Worked set:
COc1ccc(OCC(=O)NCCOCCNCC(=O)Nc2cccc3c2C(=O)N(C2CCC(=O)NC2=O)C3=O)cc1NC(=O)c1c(N)cccc1S(=O)(=O)c1ccc([N+](=O)[O-])cc1 (stereo not drawn) | > 200 µM
COc1ccc(OCC(=O)NCCOCCOCCOCCNc2cccc3c2C(=O)N(C2CCC(=O)NC2=O)C3=O)cc1NC(=O)c1c(N)cccc1S(=O)(=O)c1ccc([N+](=O)[O-])cc1 (stereo not drawn) | > 200 µM

QUERY: Could you share which CC50 value was measured for COc1ccc(OCC(=O)NCCCCCCNc2cccc3c2C(=O)N(C2CCC(=O)NC2=O)C3=O)cc1NC(=O)c1c(N)cccc1Sc1ccc([N+](=O)[O-])cc1 (stereo not drawn) ?
RESULT: > 200 µM

# credit: ChEMBL document CHEMBL6127009
